These entries and their values trace back to paper PMC9773353.

- test_details: MTT cell viability assay, HEK-293 T normal cells
- Format: cell-based
- test_parameters: human, HEK-293 T normal cells
Threshold rule: cytotoxicity at 100 µM greater than or equal to 20% is Satisfied; below that, Not satisfied.

**Q:** Is the recorded value of cytotoxicity at 100 µM equal to or greater than 20% for this compound? COc1ccc(C(=O)Nc2cc(Cl)c(O)c(Cl)c2)cc1OC
**A:** Satisfied

**Q:** Is the recorded value of cytotoxicity at 100 µM equal to or greater than 20% for this compound? Cc1cc(C)cc(C(=O)NC(=S)Nc2ccccc2O)c1
**A:** Not satisfied

**Q:** Is the recorded value of cytotoxicity at 100 µM equal to or greater than 20% for this compound? Cc1cc(C)cc(C(=O)Nc2cc(Cl)c(S(N)(=O)=O)cc2S(N)(=O)=O)c1
**A:** Satisfied

**Q:** Is the recorded value of cytotoxicity at 100 µM equal to or greater than 20% for this compound? COc1ccc(C(=O)NC(=S)Nc2cc([N+](=O)[O-])ccc2Cl)cc1OC
**A:** Not satisfied

**Q:** Is the recorded value of cytotoxicity at 100 µM equal to or greater than 20% for this compound? COc1ccc(C(=O)NC(=S)Nc2cc(Cl)c(S(N)(=O)=O)cc2S(N)(=O)=O)cc1OC
**A:** Not satisfied

**Q:** Is the recorded value of cytotoxicity at 100 µM equal to or greater than 20% for this compound? COc1ccc(C(=O)NC(=S)Nc2c(Cl)cc([N+](=O)[O-])cc2Br)cc1OC
**A:** Satisfied

**Q:** Is the recorded value of cytotoxicity at 100 µM equal to or greater than 20% for this compound? Cc1cc(C)cc(C(=O)Nc2cc(Br)cc(C(F)(F)F)c2)c1
**A:** Not satisfied

**Q:** Is the recorded value of cytotoxicity at 100 µM equal to or greater than 20% for this compound? COc1ccc(C(=O)NC(=S)Nc2ccc(C(=O)O)cc2)cc1OC
**A:** Satisfied

**Q:** Is the recorded value of cytotoxicity at 100 µM equal to or greater than 20% for this compound? Cc1cc(C)cc(C(=O)NC(=S)Nc2cc(Cl)c(O)c(Cl)c2)c1
**A:** Not satisfied

---

- test_details: MTT cell viability assay, HEK-293 T normal cells
- Assay type: cell-based
- test_parameters: human, HEK-293 T normal cells
Could you please report measured cytotoxicity at 100 µM for the items listed next?
Report only the number, with the unit % understood.

**Q:** Which cytotoxicity at 100 µM is reported for this molecule? Cc1cc(C)cc(C(=O)Nc2cc([N+](=O)[O-])ccc2Cl)c1
**A:** 15

**Q:** Which cytotoxicity at 100 µM is reported for this molecule? Cc1ccc(C(=O)NC(=S)Nc2ccc(C(=O)O)cc2)c(C)c1
**A:** 2

**Q:** Which cytotoxicity at 100 µM is reported for this molecule? Cc1ccc(C(=O)Nc2cccc(C(=O)O)c2)c(C)c1
**A:** 14

---

Could you please report measured IC50 for the items listed next?
- target_or_test_system: hCA XII (Homo sapiens, UniProt O43570)
- Sequence (O43570 25-354): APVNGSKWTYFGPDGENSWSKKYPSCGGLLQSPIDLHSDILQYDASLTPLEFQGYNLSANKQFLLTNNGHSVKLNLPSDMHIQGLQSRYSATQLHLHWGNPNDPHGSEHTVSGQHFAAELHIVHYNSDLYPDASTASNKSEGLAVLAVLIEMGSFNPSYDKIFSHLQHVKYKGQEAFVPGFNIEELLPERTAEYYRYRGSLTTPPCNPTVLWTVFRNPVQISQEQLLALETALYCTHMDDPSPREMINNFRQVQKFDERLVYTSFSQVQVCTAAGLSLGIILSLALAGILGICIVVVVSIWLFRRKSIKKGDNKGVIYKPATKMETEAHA
Note: state the figure and append the unit.

**Q:** Which IC50 is reported for this molecule? Cc1cc(C)cc(C(=O)Nc2cc([N+](=O)[O-])ccc2Cl)c1
**A:** 950 nM

**Q:** Which IC50 is reported for this molecule? Cc1cc(C)cc(C(=O)Nc2cc(Cl)c(S(N)(=O)=O)cc2S(N)(=O)=O)c1
**A:** 2990 nM

**Q:** Which IC50 is reported for this molecule? Cc1cc(C)cc(C(=O)NC(=S)Nc2cc(Cl)c(O)c(Cl)c2)c1
**A:** 2020 nM

**Q:** Which IC50 is reported for this molecule? Cc1cc(C)cc(C(=O)Nc2cc(Br)cc(C(F)(F)F)c2)c1
**A:** 1050 nM

**Q:** Which IC50 is reported for this molecule? COc1ccc(C(=O)NC(=S)Nc2ccc(C(=O)O)cc2)cc1OC
**A:** 1680 nM

**Q:** Which IC50 is reported for this molecule? COc1ccc(C(=O)Nc2cc(Cl)c(O)c(Cl)c2)cc1OC
**A:** 580 nM

**Q:** Which IC50 is reported for this molecule? Cc1cc(C)cc(C(=O)NC(=S)Nc2ccccc2O)c1
**A:** 9900 nM

**Q:** Which IC50 is reported for this molecule? COc1ccc(C(=O)NC(=S)Nc2cc([N+](=O)[O-])ccc2Cl)cc1OC
**A:** 4290 nM

---

- test_details: MTT cell viability assay, HEK-293 T normal cells
- Format: cell-based
- test_parameters: human, HEK-293 T normal cells, % cell viability ± SD (HEK-293 T cells), 100 μM, 24–48 h incubation, MTT, vs untreated control
measured_metric: viability at 100 µM

**Q:** Which viability at 100 µM is reported for this molecule? Cc1cc(C)cc(C(=O)NC(=S)Nc2cc(Cl)c(O)c(Cl)c2)c1 [Compound 26]
**A:** > 90%

**Q:** Which viability at 100 µM is reported for this molecule? COc1ccc(C(=O)NC(=S)Nc2cc([N+](=O)[O-])ccc2Cl)cc1OC [Compound 22]
**A:** > 90%

**Q:** Which viability at 100 µM is reported for this molecule? Cc1ccc(C(=O)NC(=S)Nc2ccc(C(=O)O)cc2)c(C)c1 [Compound 25]
**A:** > 90%
